Data origin, for the record: paper PMC11937253

molecular target: MPXV B6R ectodomain, His-tagged recombinant protein (mpox virus (MPXV), isolate MPXV_USA_2022_MA001); assay: SPR; BiaCore T200; […]; 1:1 binding model
propertyMeasured: pKd
Units for pKd: none; it is -log10 of a concentration expressed in mol/L.

Solved entries (count: 4):
Measured pKd, Nanobody B6R-02 (VHH) VHH: QVQLVESGGGLVQAGGSLRLSCAASGRIFRRNVMGWYRQAPGKEREFVAAITKGGYTNYADSVKGRFTISRDNAKNTVYLQMNSLKPEDTAVYYCAARYFHRKRHKWRHDYWGQGTQVTVSS : 4.85

Per the record, Nanobody B6R-06 (VHH) VHH: QVQLVESGGGLVQAGGSLRLSCAASGRIFRKRNMGWYRQAPGKEREFVASISRGSNTYYADSVKGRFTISRDNAKNTVYLQMNSLKPEDTAVYYCAVWRHRTFVRWKHFDYWGQGTQVTVSS has pKd of 7.92

Please fill in: pKd reported for Nanobody B6R-04 (VHH) VHH: QVQLVESGGGLVQAGGSLRLSCAASGRIFASDRMGWYRQAPGKEREFVAAISYGSRTNYADSVKGRFTISRDNAKNTVYLQMNSLKPEDTAVYYCAVWAFHRSWKERSHWHDYWGQGTQVTVSS = 5.99

The binder Nanobody B6R-05 (VHH) VHH: QVQLVESGGGLVQAGGSLRLSCAASGRIFHPGAMGWYRQAPGKEREFVAGISSGGNTYYADSVKGRFTISRDNAKNTVYLQMNSLKPEDTAVYYCAAPFRWVKATGRFLDYWGQGTQVTVSS showed pKd equal to 4.02

Turning to the following binder.
For this binder ( Nanobody B6R-03 (VHH) VHH: QVQLVESGGGLVQAGGSLRLSCAASGRILHRKGMGWYRQAPGKEREFVAAINKGGSTNYADSVKGRFTISRDNAKNTVYLQMNSLKPEDTAVYYCAVGKKRRTWINRHYDYWGQGTQVTVSS ), measured pKd is 5.50
